target: canine IL-31 (Canine_IL31) (canine); test: SPR (Biacore), immobilised IL-31, 1:1 fit
Sequence (chain, as listed by the source limits assumed, form in doubt): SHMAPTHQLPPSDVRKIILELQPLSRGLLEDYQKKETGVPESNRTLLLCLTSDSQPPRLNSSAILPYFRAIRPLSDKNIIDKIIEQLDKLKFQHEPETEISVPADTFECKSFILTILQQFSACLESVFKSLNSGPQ
parameter: pKd
Scale explanation: pKd corresponds to minus log10 of a concentration expressed in moles per litre.

Solved entries:
Feline 15H05 2.2 (antibody, V domains shown) VH: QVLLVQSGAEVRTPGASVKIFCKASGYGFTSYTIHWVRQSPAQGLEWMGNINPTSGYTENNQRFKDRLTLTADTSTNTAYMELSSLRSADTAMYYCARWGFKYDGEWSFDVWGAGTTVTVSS VL: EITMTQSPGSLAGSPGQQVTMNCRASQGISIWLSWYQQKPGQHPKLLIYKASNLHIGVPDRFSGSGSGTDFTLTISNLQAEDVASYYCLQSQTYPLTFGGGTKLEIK    9.41
Feline 15H05 1.1 FW2_3 (antibody, V domains shown) VH: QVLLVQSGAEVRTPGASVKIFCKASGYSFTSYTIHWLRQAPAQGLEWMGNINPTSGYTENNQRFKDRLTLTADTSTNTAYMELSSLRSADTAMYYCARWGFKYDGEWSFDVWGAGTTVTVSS VL: EIQMTQSPSSLSASPGDRVTITCRASQGISIWLSWYQQKPGNIPKVLINKASNLHIGVPPRFSGSGSGTHFTLTITSLQPEDIATYYCLQSQTYPLTFGGGTKLEIK    6.67

Next up:
Given item mouse anti IL-31 antibody 11E12 (antibody, V domains shown) VH: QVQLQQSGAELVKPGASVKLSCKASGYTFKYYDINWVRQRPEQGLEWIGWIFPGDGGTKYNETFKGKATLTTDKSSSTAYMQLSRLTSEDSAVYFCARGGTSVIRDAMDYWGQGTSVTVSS VL: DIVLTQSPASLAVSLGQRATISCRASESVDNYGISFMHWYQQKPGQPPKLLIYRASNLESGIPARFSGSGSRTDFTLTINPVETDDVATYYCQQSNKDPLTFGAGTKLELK , the value recorded as its pKd is 12.12

Numbers sourced from patent US20190282704A1.
